- Tested on: DU-145 prostate
- protocol_text: NCI-60 one-dose screen, 48 h
- test_parameters: 10 µM
This is part of a sample that, as a whole, favours compounds with a hit. Of some 83,000 tested, about 20% had one in any assay. Active and inactive are the calls of the source. How the source made its calls: active means growth percent below 10; inactive means the rest.
Give your call using only these classes: 1 = active, 0 = inactive

Look over these answered cases.
INSERT INTO results (compound, system_name, category) VALUES
  ('COP(=O)(CC(F)(F)C(F)(F)F)OC', 'DU-145 prostate', 1),
  ('CC1=C2C(=C[C@@](C)(COP(=O)(Oc3ccccc3)Oc3ccccc3)[C@@H]2O)C(=O)[C@@](C)(O)C12CC2', 'DU-145 prostate', 1),
  ('CC(C)C[C@H](NC(=O)CNC(=O)C[C@H]1O[C@@H]2OC3(C)CC[C@H]4[C@H](C)CC[C@@H]([C@H]1C)[C@@]24OO3)B(O)O', 'DU-145 prostate', 0),
  ('CC(=O)Oc1ccccc1C(=O)NC([Se])=NC1CCCCC1', 'DU-145 prostate', 0),
  ('O=C(/C=C/c1ccco1)c1nc2ccccc2n1Cc1ccc(F)cc1', 'DU-145 prostate', 0),
  ('CC(=C\C(=O)Oc1ccc2c3c1OC1C(O)CCC4(O)C(C2)N(CC2CCC2)CCC314)/C=C1\CCCc2ccccc21 (centres undefined)', 'DU-145 prostate', 0),
  ('O=C(NC([Se])=NC1CCCCC1)c1ccc2c(c1)OCO2', 'DU-145 prostate', 0),
  ('O=C(/C=C/c1ccco1)c1nc2ccccc2n1Cc1ccc(Br)cc1', 'DU-145 prostate', 0);

Recorded call for C=CC[Se]C(=O)c1cncc(C(=O)[Se]CC=C)c1 ? 1

Same question for COC(=O)c1ccc(-n2cc(CCCN(CCNc3ccnc4cc(Cl)ccc34)C(=O)CCC(=O)O[C@@H]3O[C@@H]4OC5(C)CC[C@H]6[C@H](C)CC[C@@H]([C@H]3C)[C@@]46OO5)nn2)cc1 please. 0

Further, for CC[C@]12C=CCN3CC[C@@]4(c5ccc(OC)cc5N(C)[C@H]4[C@@](O)(C(=O)OC)[C@@H]1OC(=O)CCCC[P+](c1ccc(OC)cc1)(c1ccc(OC)cc1)c1ccc(OC)cc1)[C@@H]32 ? 1

Now consider Cc1ccc2[nH]c(=S)n(-c3ccc(F)cc3)c(=O)c2c1 and answer again. 0

Same question, CCOP(=O)(OCC)C(NC(C)=O)C(=O)SCCN (centres undefined) this time 0

Check COc1ccc(OC)c(/C=C/C(=O)c2nc3ccccc3n2Cc2ccc(F)cc2)c1 too. 1

Then what about the compound CC12OOC(C)(OO1)C2CCC(=O)OCCNc1ccnc2cc(Cl)ccc12 (centres undefined) ? 1

Could you do the same for O=C(/C=C/c1ccc(Cl)cc1)c1nc2ccccc2n1Cc1ccc(F)cc1 , please? 0

Quick one: C=CCN=C([Se])NC(=O)c1ccc2c(c1)OCO2 0

Would you kindly repeat that for COc1cc2cc(C(=O)N3C[C@@H](CCl)c4c3cc(OC(=O)N3CCN(C)[C@@H]5CSSC[C@@H]53)c3ccccc43)[nH]c2c(OC)c1OC ? 1

Can you handle COC(=O)C[C@](O)(CCC(C)C)C(=O)O[C@H]1C(OC)=C[C@@]23CCCN2CCc2cc4c(cc2[C@@H]13)OCO4 next? 1
